- experimental_target: PHD1 (EGLN2) (Homo sapiens (Human))
- protocol_summary: HIF-PH assay (14CO2 capture), PHD1 enzyme inhibition
- Assay type: biochemical
- experimental_conditions: Table 1; ratio of the IC50 of the compound for each enzyme
quantity_name: PHD2/PHD1

See these solved cases before continuing.
molecule	test_result
O=C(O)CCNC(=O)c1ncc2cc(Oc3ccccc3)ccc2c1O [Compound 1]	11
O=C(O)CCCNC(=O)c1ncc2cc(Sc3ccccc3)ccc2c1O [Compound 115]	11
O=C(O)CCCCNC(=O)c1ncc2cc(Nc3ccccc3)ccc2c1O [Compound 124]	8
N#Cc1nc(C(=O)NCC[C@@H](NC(N)=O)C(=O)O)c(O)c2ccc(Oc3ccccc3)cc12 [Compound 55]	8
CC(C)(CNC(=O)c1nc(C#N)c2ccc(Oc3ccccc3)cc2c1O)C(=O)O [Compound 123]	30
N[C@@H](CNC(=O)c1ncc2cc(Oc3ccccc3)ccc2c1O)C(=O)O [Compound 9]	6
C[C@H](C(=O)O)[C@@H](C)NC(=O)c1nc(C#N)c2cc(Oc3ccccc3)ccc2c1O [Compound 70]	35
N#Cc1nc(C(=O)NCCC(=O)C(=O)O)c(O)c2ccc(Oc3ccccc3)cc12 [Compound 56]	7
CO[C@@H](CCNC(=O)c1nc(C#N)c2cc(Oc3ccccc3)ccc2c1O)C(=O)O [Compound 94]	7
COc1ccc(Oc2ccc3c(O)c(C(=O)NCC(C)(C)C(=O)O)ncc3c2)cc1 [Compound 104]	6

1: N#Cc1nc(C(=O)NCC[C@H](N)C(=O)O)c(O)c2ccc(Oc3ccccc3)cc12 [Compound 45]
2: O=C(O)CCCNC(=O)c1ncc2cc(NC(=O)Nc3ccc(F)cc3)ccc2c1O [Compound 142]
3: N#Cc1nc(C(=O)NCC2(C(=O)O)CC[S+]([O-])CC2)c(O)c2ccc(Oc3ccccc3)cc12 (stereo not drawn) [Compound 30]
4: N#Cc1nc(C(=O)NCCC[C@H](N)C(=O)O)c(O)c2ccc(Oc3ccccc3)cc12.O=C(O)C(F)(F)F [Compound 163]
Hey, quick one: sort these by PHD2/PHD1, largest value first please. Order the labels as requested and list them.
1, 2, 3, 4
(1: 26, 2: 14, 3: 8, 4: 5)

---

- experimental_target: UniProt:Q9GZT9
- protocol_summary: HIF-PH assay (14CO2 capture), PHD2 enzyme inhibition
- Assay type: biochemical
- experimental_conditions: Table 1; individual measurement; read-out: IC50 (μM) PHD2
quantity_name: IC50 (µM)

See these solved cases before continuing.
compound	experimental_target	IC50 (µM)
CC(C)(CCC(=O)O)NC(=O)c1nc(C#N)c2cc(Oc3ccccc3)ccc2c1O [Compound 46]	UniProt:Q9GZT9	20.8
COc1ccc(Oc2ccc3c(O)c(C(=O)NCC(C)(C)C(=O)O)nc(C#N)c3c2)cc1 [Compound 20]	UniProt:Q9GZT9	5.22
O=C(O)CCNC(=O)c1ncc2cc(S(=O)(=O)C3CCCCC3)ccc2c1O [Compound 135]	UniProt:Q9GZT9	2.88
N#Cc1nc(C(=O)NCC(C(=O)O)c2ccccc2F)c(O)c2ccc(Oc3ccccc3)cc12 (centres unmarked) [Compound 182]	UniProt:Q9GZT9	11.9
CC(C)(CNC(=O)c1nc(C#N)c2cc(Oc3cccc(F)c3)ccc2c1O)C(=O)O [Compound 42]	UniProt:Q9GZT9	3.95

a: Cc1ccccc1[C@H](CC(=O)O)NC(=O)c1nc(C#N)c2cc(Oc3ccccc3)ccc2c1O [Compound 171]
b: N#Cc1nc(C(=O)NCC(C(=O)O)C2CC2)c(O)c2ccc(Oc3c(F)cccc3F)cc12 (centres unmarked) [Compound 180]
c: N#Cc1nc(C(=O)N[C@H](Cc2ccccc2)[C@H](O)C(=O)O)c(O)c2ccc(Oc3ccccc3)cc12 [Compound 74]
d: CC(C)(CC(=O)O)NC(=O)c1ncc2cc(Oc3ccccc3)ccc2c1O [Compound 6]
Please order the records by their reported IC50, lowest number first. Order the labels as requested and list them.
c, b, a, d
(c: 7.64 µM, b: 28.9 µM, a: 45.7 µM, d: 192 µM)

A: C[C@@H](NC(=O)c1nc(C#N)c2cc(Oc3ccccc3)ccc2c1O)[C@@H](C)C(=O)O [Compound 69]
B: CC(C)(CNC(=O)c1nc(C#N)c2cc(NC(=O)Nc3ccccc3)ccc2c1O)C(=O)O [Compound 140]
Rank A against B by their IC50 values and give the higher one. Response format: the label of the selected entry.
A

---

- experimental_target: PHD2 (EGLN1) (Homo sapiens (Human), UniProt Q9GZT9)
- Sequence (Q9GZT9 whole entry): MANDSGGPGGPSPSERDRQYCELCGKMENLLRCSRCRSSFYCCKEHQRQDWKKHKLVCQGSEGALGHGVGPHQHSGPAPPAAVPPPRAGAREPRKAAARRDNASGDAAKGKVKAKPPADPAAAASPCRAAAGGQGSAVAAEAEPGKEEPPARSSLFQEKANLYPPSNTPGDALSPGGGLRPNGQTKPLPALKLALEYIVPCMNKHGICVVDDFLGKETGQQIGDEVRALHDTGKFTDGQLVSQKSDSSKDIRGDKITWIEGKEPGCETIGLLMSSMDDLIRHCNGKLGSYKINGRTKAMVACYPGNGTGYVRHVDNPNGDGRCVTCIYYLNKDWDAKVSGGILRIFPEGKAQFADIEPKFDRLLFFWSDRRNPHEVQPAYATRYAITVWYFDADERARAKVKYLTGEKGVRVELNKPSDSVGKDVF
- protocol_summary: HIF-PH assay (14CO2 capture), PHD2 enzyme inhibition
- Type: biochemical
- experimental_conditions: Table 1; individual measurement; read-out: IC50 (μM) PHD2
quantity_name: IC50 (µM)

See these solved cases before continuing.
compound	IC50, µM
CCCC(CCC)(CNC(=O)c1nc(C#N)c2cc(Oc3ccccc3)ccc2c1O)C(=O)O [Compound 18]	29.9
CC(C)(CNC(=O)c1nc(C#N)c2cc(OCc3ccccc3)ccc2c1O)C(=O)O [Compound 153]	30.5
CCNC(=O)N[C@H](CCNC(=O)c1nc(C#N)c2cc(Oc3ccccc3)ccc2c1O)C(=O)O [Compound 52]	24.7
N#Cc1nc(C(=O)NCC2(C(=O)O)CCCC2)c(O)c2ccc(Oc3ccccc3)cc12 [Compound 19]	22.8
N#Cc1nc(C(=O)NCC(C(=O)O)C2CC2)c(O)c2ccc(Oc3ccccc3)cc12 (centres unmarked) [Compound 166]	12.2
N#Cc1nc(C(=O)NCC(C(=O)O)C2CC2)c(O)c2ccc(Oc3ccccc3F)cc12 (centres unmarked) [Compound 177]	10.5
CC(C)(CNC(=O)c1ncc2cc(Cc3ccccc3)ccc2c1O)C(=O)O [Compound 146]	181
Cc1ccc(Oc2ccc3c(O)c(C(=O)NCC(C)(C)C(=O)O)nc(C#N)c3c2)cc1 [Compound 44]	3.9

A: N#Cc1nc(C(=O)N[C@H]2CCCC[C@H]2C(=O)O)c(O)c2ccc(Oc3ccccc3)cc12 (relative stereo) [Compound 32]
B: CC(C)(CNC(=O)c1nc(C#N)c2cc(-c3ccccc3)ccc2c1O)C(=O)O [Compound 138]
C: O=C(O)CCCCNC(=O)c1ncc2cc(-c3ccc(F)cc3)ccc2c1O [Compound 149]
Hey, quick one: sort these by IC50, largest value first please. Order the labels as requested and list them.
A, C, B

P: CC(C)(CNC(=O)c1ncc2cc(-c3ccc(F)cc3)ccc2c1O)C(=O)O [Compound 150]
Q: N#Cc1nc(C(=O)NCC(C(=O)O)C2CC2)c(O)c2ccc(Oc3ccc(F)cc3)cc12 (centres unmarked) [Compound 179]
R: CCC(CNC(=O)c1nc(C#N)c2cc(Oc3ccccc3)ccc2c1O)C(=O)O (centres unmarked) [Compound 57]
S: CC(C)(CCCNC(=O)c1nc(C#N)c2cc(Oc3ccccc3)ccc2c1O)C(=O)O [Compound 95]
Please order the records by their reported IC50, lowest number first. Order the labels as requested and list them.
S, R, Q, P

---

- experimental_target: PHD1 (EGLN2) (Homo sapiens (Human), UniProt Q96KS0)
- Sequence (Q96KS0 whole entry): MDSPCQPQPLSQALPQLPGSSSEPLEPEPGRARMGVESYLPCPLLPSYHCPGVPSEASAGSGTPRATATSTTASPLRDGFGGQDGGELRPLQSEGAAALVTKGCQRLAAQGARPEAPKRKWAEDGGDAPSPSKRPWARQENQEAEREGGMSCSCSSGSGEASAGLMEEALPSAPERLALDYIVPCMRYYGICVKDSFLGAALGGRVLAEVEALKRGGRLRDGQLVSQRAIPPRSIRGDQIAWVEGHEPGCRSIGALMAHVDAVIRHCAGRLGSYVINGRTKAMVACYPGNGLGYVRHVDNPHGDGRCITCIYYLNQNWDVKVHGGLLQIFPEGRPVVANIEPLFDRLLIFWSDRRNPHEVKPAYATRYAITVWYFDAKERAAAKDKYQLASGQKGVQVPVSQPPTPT
- protocol_summary: HIF-PH assay (14CO2 capture), PHD1 enzyme inhibition
- Assay type: biochemical
- experimental_conditions: Table 1; ratio of the IC50 of the compound for each enzyme
quantity_name: PHD2/PHD1

See these solved cases before continuing.
molecule	PHD2/PHD1
CC(C)(C)OC(=O)N1CCC(CC(=O)O)(NC(=O)c2nc(C#N)c3cc(Oc4ccccc4)ccc3c2O)CC1 [Compound 96]	14
CC(C)(CNC(=O)c1nc(C#N)c2cc(CCc3ccccc3)ccc2c1O)C(=O)O [Compound 122]	11
CC(C)(CNC(=O)c1nc(C#N)c2cc(Oc3cccnc3)ccc2c1O)C(=O)O [Compound 27]	10
N#Cc1nc(C(=O)NCC(C(=O)O)C2CC2)c(O)c2ccc(Oc3c(F)cccc3F)cc12 (stereo not shown) [Compound 180]	6
N#Cc1nc(C(=O)N[C@H](CC(=O)O)c2ccccc2)c(O)c2ccc(Oc3ccccc3)cc12 [Compound 48]	9

I: CC(C)CC(CNC(=O)c1nc(C#N)c2cc(Oc3ccccc3)ccc2c1O)CC(=O)O (stereo not shown) [Compound 183]
II: N#Cc1nc(C(=O)N[C@@H](CC(=O)O)c2ccccc2)c(O)c2ccc(Oc3ccccc3)cc12 [Compound 47]
Rank I against II by their PHD2/PHD1 values and give the higher one. Response format: the label of the selected entry.
II

---

- experimental_target: PHD1 (EGLN2) (Homo sapiens (Human))
- protocol_summary: HIF-PH assay (14CO2 capture), PHD1 enzyme inhibition
- Type: biochemical
- experimental_conditions: Table 1; ratio of the IC50 of the compound for each enzyme
quantity_name: PHD2/PHD1

See these solved cases before continuing.
N#Cc1nc(C(=O)NCC2(C(=O)O)CCC2)c(O)c2ccc(OC3CCCCC3)cc12 9
CC(C)(CNC(=O)c1nc(C#N)c2cc(NC(=O)Nc3ccccc3)ccc2c1O)C(=O)O 12

a: N#Cc1nc(C(=O)NC2(CC(=O)O)CCC2)c(O)c2ccc(Oc3ccccc3)cc12
b: CC(C)(C)OC(=O)N[C@@H](CNC(=O)c1nc(C#N)c2cc(Oc3ccccc3)ccc2c1O)C(=O)O
Lower PHD2/PHD1: a or b ? Response format: the label of the selected entry.
b
(b: 6, a: 10)
